- Tested on: Escherichia coli TOP10;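 note: peptides expressed intracellularly from a pBAD plasmid library in pooled LB shake-flask culture, induced with 0.3% L-arabinose, DNA abundance read by NGS, three biological replicates, DESeq2 with apeglm shrinkage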
- method-summary: shrunken log2 fold change of peptide-encoding DNA abundance (4.5 h post-induction vs induction); higher = less antimicrobial activity (less host growth inhibition)
- assay-conditions: time post-induction: 4.5 h; library: site-saturation at positions 5, 18, 19, 20
# reported shrunken log2 fold change; entries follow

Worked cases, shrunken log2 fold change given:
{"columns": ["seq-string", "target-or-system", "shrunken log2 fold change"],
 "data": [
  ["RRIRPRPPRLPRPRPRPALNPRP", "Escherichia coli TOP10", 0.0983],
  ["RRIRHRPPRLPRPRPRPPDKPRP", "Escherichia coli TOP10", -0.112],
  ["RRIRARPPRLPRPRPRPPWYPRP", "Escherichia coli TOP10", 0.139],
  ["RRIRCRPPRLPRPRPRPKASPRP", "Escherichia coli TOP10", -0.00163]
]}

# context switch: different sequence, same shrunken log2 fold change
Request: May I ask what shrunken log2 fold change has been recorded for RRIRERPPRLPRPRPRPTTPPRP ?
Result: -0.0926

Reference for the values: the supplement of paper PMC9112550
